// cross-source set; read-out = Ki; system = Carbonic anhydrase 9 (Homo sapiens)
PROPERTY MEASURED: Ki (nM)

compound="NS(=O)(=O)OC[C@H]1OC(O)[C@H](O)[C@@H](O)[C@H]1O (stereo partly specified)" property_measured=Ki unit_of_measurement=nM readout_value=62
compound=COc1cc(OC)c2ccc(=O)oc2c1OC property_measured=Ki unit_of_measurement=nM readout_value=760
compound=COc1ccc2oc(=O)c(C(=O)O)cc2c1 property_measured=Ki unit_of_measurement=nM readout_value=5700
compound="CCOP(=O)(OCC)C(Nc1ccc(S(N)(=O)=O)cc1)c1cc(OC)ccc1OC (stereo unspecified)" property_measured=Ki unit_of_measurement=nM readout_value=470
compound=NS(=O)(=O)c1ccc(/N=C2\NC(=O)/C(=C3/C(=O)Nc4ccc(Br)cc43)S2)cc1 property_measured=Ki unit_of_measurement=nM readout_value=66.6
compound=NS(=O)(=O)c1ccccc1C(=O)NNC(=O)NS(=O)(=O)c1ccc(Cl)cc1 property_measured=Ki unit_of_measurement=nM readout_value=72
compound=CC1=CC(OCC(=O)c2ccc(Br)cc2)=NS(=O)(=O)O1 property_measured=Ki unit_of_measurement=nM readout_value=196
compound=NS(=O)(=O)c1ccc(-n2nnc(-c3nnc(SCC(=O)c4ccc(F)cc4)[nH]3)c2-c2ccccc2)cc1 property_measured=Ki unit_of_measurement=nM readout_value=177
compound=COC(=O)Nc1ccccc1C(=O)n1ccc(=O)c(S(N)(=O)=O)c1 property_measured=Ki unit_of_measurement=nM readout_value=96
compound=CC(=O)c1nn(-c2ccc(S(N)(=O)=O)cc2)c2nc3nc(-c4ccc(Cl)cc4)cc(-c4ccc(F)cc4)c3c(=O)n12 property_measured=Ki unit_of_measurement=nM readout_value=250
compound=COc1nc(NCc2ccc(S(N)(=O)=O)cc2)nc(OC)n1 property_measured=Ki unit_of_measurement=nM readout_value=155
compound=O=C1NS(=O)(=O)c2ccccc21 property_measured=Ki unit_of_measurement=nM readout_value=103
compound=NS(=O)(=O)c1cccc(-n2nc(CO)cc2-c2ccc3ccccc3c2)c1 property_measured=Ki unit_of_measurement=nM readout_value=19
compound=COc1ccc(N2CCN(C(=S)SCC(=O)Nc3ccc(S(N)(=O)=O)cc3)CC2)cc1 property_measured=Ki unit_of_measurement=nM readout_value=564
compound=Cc1ccc(S(=O)(=O)NNC(=O)Cn2ccc(=O)c(S(N)(=O)=O)c2)cc1 property_measured=Ki unit_of_measurement=nM readout_value=11.8
compound=NS(=O)(=O)c1ccc(-n2cc(/C=N\Nc3nc(-c4cc5cc(Br)ccc5oc4=O)cs3)c(-c3ccc(Cl)cc3)n2)cc1 property_measured=Ki unit_of_measurement=nM readout_value=23.1
compound="Cc1ccc2c(c1)NC(=O)/C2=N\\NC(=O)C1CCCN(CC(=O)Nc2ccc(S(N)(=O)=O)cc2)C1 (stereo unspecified)" property_measured=Ki unit_of_measurement=nM readout_value=15.8
compound=N#CCN1C(=O)c2ccccc2S1(=O)=O property_measured=Ki unit_of_measurement=nM readout_value=290
compound="CC(=O)O[C@@H]1C=CC(NS(=O)(=O)ON)O[C@H]1C (mixture of isomers)" property_measured=Ki unit_of_measurement=nM readout_value=86
compound=NS(=O)(=O)c1ccc(NC(=O)Nc2ccc(/N=C3\C(=O)N(Cc4cccc(F)c4)c4ccc(Br)cc43)cc2)cc1 property_measured=Ki unit_of_measurement=nM readout_value=61.2
compound=CCN(CC)c1nc(NCc2ccc(S(N)(=O)=O)cc2)nc(N(CC)CC)n1 property_measured=Ki unit_of_measurement=nM readout_value=7.5
compound=NS(=O)(=O)c1ccc2nc(-n3cc(C=O)c(-c4ccc(Cl)cc4)n3)sc2c1 property_measured=Ki unit_of_measurement=nM readout_value=1690
compound=Nc1cccc(Cc2ccc(-c3ccc(S(N)(=O)=O)cc3)cc2)c1 property_measured=Ki unit_of_measurement=nM readout_value=556
compound=CCOc1ccc(S(=O)(=O)N2CCNCC2)cc1-c1nnc2c(n1)c(C)nn2C property_measured=Ki unit_of_measurement=nM readout_value=40.1
compound=NS(=O)(=O)c1ccc(/N=C/c2ccccc2O)cc1 property_measured=Ki unit_of_measurement=nM readout_value=952
compound=CN(C)c1ccc(/C=C(\C#N)C(=O)Nc2ccc(S(N)(=O)=O)cc2)cc1 property_measured=Ki unit_of_measurement=nM readout_value=3.4
compound=Cc1nn(C)c2nnc(Nc3ccc(S(=O)(=O)NCCN4CCOCC4)cc3)nc12 property_measured=Ki unit_of_measurement=nM readout_value=824
compound=Nc1nc(-c2ccc(S(N)(=O)=O)cc2)cn2c(=O)n(-c3ccccc3)nc12 property_measured=Ki unit_of_measurement=nM readout_value=8920
compound=Cc1cc(=O)oc2cc(C(F)(F)S(N)(=O)=O)ccc12 property_measured=Ki unit_of_measurement=nM readout_value=195
compound=Cc1cccc[n+]1-c1ccncc1S(N)(=O)=O property_measured=Ki unit_of_measurement=nM readout_value=7.4
compound=CCCC(=O)Nc1ccc(S(N)(=O)=O)cc1 property_measured=Ki unit_of_measurement=nM readout_value=83
